Tested on: K562;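 also: after 48 h exposure read by CellTiter-Glo luminescence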
Assay: cell viability relative to vehicle control; higher = less cytotoxic
Settings: 10 µM; SRSF2 genotype: SRSF2 wt/wt
Class (required): determined from cell viability; valid ranges are bin A: < 50%; bin B: ≥ 50% and < 90%; bin C: ≥ 90%

Please review the entries below; each comes with its answer.
1. Cc1ccc(Nc2ncc3c(n2)N(C)C(=O)N(c2cc(NC(=O)c4cccc(C(F)(F)F)c4)ccc2C)C3)cn1 :: bin A
2. CC(C)n1nc(-c2cc3cc(O)ccc3[nH]2)c2c(N)ncnc21 :: bin A
3. c1cc(-c2cnn3cc(-c4ccc(N5CCNCC5)cc4)cnc23)c2cccnc2c1 :: bin A
4. COc1ccc(NC(=O)c2ccc(C(=N)N(C)C)cc2)c(C(=O)Nc2ccc(Cl)cn2)c1 :: bin B
5. Cc1coc2c1C(=O)C(=O)c1c-2ccc2c1CCCC2(C)C :: bin B
6. O=C(O)CCc1ccc(O)cc1 :: bin C
7. CC(C)(C)NS(=O)(=O)c1cncc(-c2cc(F)c3nc(N)nn3c2)c1 :: bin C
8. O=S(=O)(NCCNCC=Cc1ccc(Br)cc1)c1cccc2cnccc12 :: bin B
9. CC1(C)[C@@H](O[C@H]2O[C@H](C(=O)O)[C@@H](O)[C@H](O)[C@H]2O[C@@H]2O[C@H](C(=O)O)[C@@H](O)[C@H](O)[C@H]2O)CC[C@]2(C)[C@H]3C(=O)C=C4[C@@H]5C[C@@](C)(C(=O)O)CC[C@]5(C)CC[C@@]4(C)[C@]3(C)CC[C@@H]12 [Ammonium Glycyrrhizinate (AMGZ)] :: bin C

Lab note: next compound to report on.
Using the reported cell viability, which band applies to O=C([O-])c1ccccc1O.[Na+] [Sodium salicylate] ?
bin B
